B1: glmS ribozyme (parent)
chain: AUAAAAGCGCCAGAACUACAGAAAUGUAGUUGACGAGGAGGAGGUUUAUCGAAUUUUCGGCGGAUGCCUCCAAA

Variants of: B1
Test: self-cleavage kobs at 2500 uM GlcN6P; higher = faster cleavage; RNA array
Conditions: with glucosamine-6-phosphate
Variants at the floor of the assay were thinned out.
reported-property: self-cleavage kobs at 2500 uM GlcN6P

Each variant below has a reported value. Please supply its self-cleavage kobs at 2500 uM GlcN6P.
1. C8A U69G
2. G32U U65G
3. G40A A48U
4. A15U G66U
5. G9C C10A G43C C67U
6. C8G C16G G40C
7. C11G G13C A15G G43U G63C

Found:
0.000592 s⁻¹
2.49e-05 s⁻¹
9.03e-05 s⁻¹
0.000153 s⁻¹
< 1e-05 s⁻¹
< 1e-05 s⁻¹
< 1e-05 s⁻¹
